- Tested on: 873145-292-R-J1-PDC complex spheroid viability;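 note: luminescence signal used as surrogate for viable cell content; spheroids exposed to compounds for 7 days before viability readout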
- experimental-details: Anticancer human tumor 873145-292-R-J1-PDC patient-derived renal clear cell carcinoma cell line growth inhibition [POLQ]
- experimental-setup: second compound 0.316 µM; first compound 1 µM; stronger effect = lower value
- Procedure: Multicellular complex tumor spheroid response to Polymerase (POL) inhibitors (novobiocin, ART-558, RP6685) in combination with a variety of drugs and investigational agents in selected tumor cell lines The POL inhibitors (novobiocin, ART-558, and RP6685) were evaluated both individually and in combination with standard of care and investigational anticancer small molecules within a complex spheroid model of solid tumors. . […]
condition met if viability, T/C is below 60%. condition not met if not; exact matches included in condition not met.

Look over these answered cases.
CC(C)n1c(=O)n(C)c2cnc3cc(F)c(-c4ccc(OCCCN5CCCCC5)nc4)cc3c21 + Cc1cccc(N(C)C(=O)C2C(O)CCN2c2nc(C)cc(C(F)(F)F)c2C#N)c1
condition not met
CC(C)n1c(=O)n(C)c2cnc3cc(F)c(-c4ccc(OCCCN5CCCCC5)nc4)cc3c21 + COC1C(OC(N)=O)C(O)C(Oc2ccc3c(O)c(NC(=O)c4ccc(O)c(CC=C(C)C)c4)c(=O)oc3c2C)OC1(C)C
condition not met
COc1ccc([C@@H](O)c2cc(-c3ncnc4cc(N5CCOCC5)ccc34)c(F)cc2Cl)nn1 + COC1C(OC(N)=O)C(O)C(Oc2ccc3c(O)c(NC(=O)c4ccc(O)c(CC=C(C)C)c4)c(=O)oc3c2C)OC1(C)C
condition not met

In: Below 60% on viability, T/C? Entry COc1cccc(OCCCN)c1-c1cc(Nc2cnc(C#N)cn2)n[nH]1 + COC1C(OC(N)=O)C(O)C(Oc2ccc3c(O)c(NC(=O)c4ccc(O)c(CC=C(C)C)c4)c(=O)oc3c2C)OC1(C)C
Out: condition not met

In: Below 60% on viability, T/C? Entry COc1cc(C2c3cc4c(cc3C(OC3OC5COC(C)OC5C(O)C3O)C3COC(=O)C23)OCO4)cc(OC)c1O (stereo unspecified) + Cc1cccc(N(C)C(=O)C2C(O)CCN2c2nc(C)cc(C(F)(F)F)c2C#N)c1
Out: condition not met

In: Below 60% on viability, T/C? Entry C=CCn1c(=O)c2cnc(Nc3ccc(N4CCN(C)CC4)cc3)nc2n1-c1cccc(C(C)(C)O)n1 + Nc1ccc(C#CCN(C(=O)Cc2ncc(C(F)(F)F)cc2C(F)(F)F)c2ccc(F)cc2)nn1
Out: condition not met

In: Below 60% on viability, T/C? Entry COc1cc(C2c3cc4c(cc3C(OC3OC5COC(C)OC5C(O)C3O)C3COC(=O)C23)OCO4)cc(OC)c1O (stereo unspecified) + COC1C(OC(N)=O)C(O)C(Oc2ccc3c(O)c(NC(=O)c4ccc(O)c(CC=C(C)C)c4)c(=O)oc3c2C)OC1(C)C
Out: condition not met

In: Below 60% on viability, T/C? Entry CNCc1ccc(-c2[nH]c3cc(F)cc4c3c2CCNC4=O)cc1 + Cc1cccc(N(C)C(=O)C2C(O)CCN2c2nc(C)cc(C(F)(F)F)c2C#N)c1
Out: condition not met

In: Below 60% on viability, T/C? Entry Nc1ccn(C2OC(CO)C(O)C2(F)F)c(=O)n1 (stereo unspecified) + COC1C(OC(N)=O)C(O)C(Oc2ccc3c(O)c(NC(=O)c4ccc(O)c(CC=C(C)C)c4)c(=O)oc3c2C)OC1(C)C
Out: condition met

In: Below 60% on viability, T/C? Entry CC1COCCN1c1cc(-c2ccnn2C)c2ccnc(-c3ccn[nH]3)c2n1 (stereo unspecified) + Cc1cccc(N(C)C(=O)C2C(O)CCN2c2nc(C)cc(C(F)(F)F)c2C#N)c1
Out: condition met

The reported numbers originate from PubChem BioAssay AID1963834.
